tested on: Escherichia coli; experiment: Antibacterial activity against Escherichia coli ECM116 mar1642 overexpressing […] pump after 18 hrs by twofold serial dilution method relative to berberine; assay type: functional
The reader will find reported fold change (FC) values listed item by item below.
READOUT KIND: fold change (FC)

COc1ccc2c(OCc3ccccc3)c3[n+](cc2c1OC)CCc1cc2c(cc1-3)OCO2.[Br-]; 14
COc1ccc2c(OCc3ccccn3)c3[n+](cc2c1OC)CCc1cc2c(cc1-3)OCO2.[Br-]; 2
COc1ccc2c(OCc3ccc4ccccc4c3)c3[n+](cc2c1OC)CCc1cc2c(cc1-3)OCO2.[Br-]; 15
COc1ccc2c(OCc3ccc(C#N)cc3)c3[n+](cc2c1OC)CCc1cc2c(cc1-3)OCO2.[Br-]; 7
